Reported Uric acid 0 h values for the following compounds.
test system: potassium oxonate-induced hyperuricemic rats; test: Serum uric acid in potassium oxonate-induced hyperuricemic rats, 3 days of gavage (Example 35); type: in vivo, SD rats; conditions: serum; 2 mg/kg gavage for 3 days; day 3, 0 h, before potassium oxonate injection; mean ± SD, n=6
Provide the reading as a plain figure in µmol/L.

Please look up its Uric acid 0 h: CC(C)n1nc(C#N)c2cc(-n3cc(C(=O)OCCCCO[N+](=O)[O-])cn3)ccc21 [Compound 38]
51.7

Others:
Please look up its Uric acid 0 h: Cc1nc(-c2ccc(OCC(C)C)c(C#N)c2)sc1C(=O)O [Febuxostat, reference compound]
39.2

Cool, now CC(C)n1nc(C#N)c2cc(-n3cc(C(=O)Oc4cccc(CO[N+](=O)[O-])c4)cn3)ccc21 [Compound 41]
50.6

Cool, now CC(C)=CCC/C(C)=C/CC/C(C)=C/COC(=O)c1cnn(-c2ccc3c(c2)c(C#N)nn3C(C)C)c1 [Compound 13]
40.7
